Sourced from ChEMBL document CHEMBL4699575

pKd: −log10 of the molar value.
Values of pKd reported for High affinity nerve growth factor receptor (Homo sapiens) appear below.
property.measured: pKd

Below, each entry is followed by its recorded pKd result.
compound	pKd
O=C1CCC(N2C(=O)c3cccc(NCCOCCC(=O)N4CCN(c5cccc(-c6cnc7ccc(N8CCC[C@@H]8c8cccc(F)c8)nn67)n5)CC4)c3C2=O)C(=O)N1 (some centres undefined)	9.00
CN1C(=O)CCC(N2C(=O)c3cccc(NCCCCCC(=O)N4CCN(c5cccc(-c6cnc7ccc(N8CCC[C@@H]8c8cccc(F)c8)nn67)n5)CC4)c3C2=O)C1=O (some centres undefined)	8.54

1: CN1C(=O)CCC(N2C(=O)c3cccc(NCCOCCC(=O)N4CCN(c5cccc(-c6cnc7ccc(N8CCC[C@@H]8c8cccc(F)c8)nn67)n5)CC4)c3C2=O)C1=O (some centres undefined)
2: O=C1CCC(N2C(=O)c3cccc(NCCCCCC(=O)N4CCN(c5cccc(-c6cnc7ccc(N8CCC[C@@H]8c8cccc(F)c8)nn67)n5)CC4)c3C2=O)C(=O)N1 (some centres undefined)
Pick the one with the larger pKd: 1 vs 2 // respond with label for picked entry
1
